- Assay System: T1, Recombinant Human DLL4 (delta-like protein 4) (human, UniProt Q9NR61 27-524)
- T1 construct: Bought recombinant human DLL4 (R&D Systems Cat#1506-D4/CF); also called rHuman DLL4
- Protocol Description: ECL (MSD) multispot binding assay, antigen spotted on plate, Fab in solution;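 also: purified Fab incubated 1 h at 20 °C, detected via TAG-labelled antibody electrochemiluminescence, antigen spot compared with the blank in the same well, ratio at least 4 counted as hit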
Reported Metric: ECL signal

INSERT INTO measurements (binder, recorded_number) VALUES
  ('Fab VH1-46_IGHD6-6*01_IGHJ1*01 S102A/S103P/S104F/H111F (APFF) & L6_IGKJ1*01 S30N (Fab, V domains shown, Fab made in E. coli; The constant parts (CH1 with His6 and Flag tags from plasmid A, kappa CL from plasmid C) are not added here; also called APFF & S30N) VH: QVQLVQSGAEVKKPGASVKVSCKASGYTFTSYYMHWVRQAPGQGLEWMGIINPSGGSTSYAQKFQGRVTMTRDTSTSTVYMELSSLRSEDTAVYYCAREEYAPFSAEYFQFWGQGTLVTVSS VL: EIVLTQSPATLSLSPGERATLSCRASQSVNSYLAWYQQKPGQAPRLLIYDASNRATGIPARFSGSGSGTDFTLTISSLEPEDFAVYYCQQRSNWPPWTFGQGTKVEIKR', 175000),
  ('Fab VH1-46_IGHD6-6*01_IGHJ1*01 S102A/S103P/S104F/H111F (APFF) & L6_IGKJ1*01 S30Q (Fab, V domains shown, Fab made in E. coli; The constant parts (CH1 with His6 and Flag tags from plasmid A, kappa CL from plasmid C) are not added here; also called APFF & S30Q) VH: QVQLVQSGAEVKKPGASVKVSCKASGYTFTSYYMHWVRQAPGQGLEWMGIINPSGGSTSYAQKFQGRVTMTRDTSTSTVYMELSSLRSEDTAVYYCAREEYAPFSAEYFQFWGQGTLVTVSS VL: EIVLTQSPATLSLSPGERATLSCRASQSVQSYLAWYQQKPGQAPRLLIYDASNRATGIPARFSGSGSGTDFTLTISSLEPEDFAVYYCQQRSNWPPWTFGQGTKVEIKR', 197000),
  ('Fab VH1-46_IGHD6-6*01_IGHJ1*01 S102A/S103P/S104F/H111F (APFF) & L6_IGKJ1*01 S30A (Fab, V domains shown, Fab made in E. coli; The constant parts (CH1 with His6 and Flag tags from plasmid A, kappa CL from plasmid C) are not added here; also called APFF & S30A) VH: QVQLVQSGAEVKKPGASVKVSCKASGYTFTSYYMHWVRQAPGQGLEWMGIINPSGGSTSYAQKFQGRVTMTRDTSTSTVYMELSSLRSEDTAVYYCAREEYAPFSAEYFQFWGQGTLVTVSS VL: EIVLTQSPATLSLSPGERATLSCRASQSVASYLAWYQQKPGQAPRLLIYDASNRATGIPARFSGSGSGTDFTLTISSLEPEDFAVYYCQQRSNWPPWTFGQGTKVEIKR', 187000),
  ('Fab VH1-46_IGHD6-6*01_IGHJ1*01 S102A/S103P/S104F/H111F (APFF) & L6_IGKJ1*01 S30G (Fab, V domains shown, Fab made in E. coli; The constant parts (CH1 with His6 and Flag tags from plasmid A, kappa CL from plasmid C) are not added here; also called APFF & S30G) VH: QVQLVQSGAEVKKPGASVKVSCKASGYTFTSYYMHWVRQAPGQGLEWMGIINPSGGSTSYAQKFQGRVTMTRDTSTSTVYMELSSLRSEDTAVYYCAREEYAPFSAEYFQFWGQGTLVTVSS VL: EIVLTQSPATLSLSPGERATLSCRASQSVGSYLAWYQQKPGQAPRLLIYDASNRATGIPARFSGSGSGTDFTLTISSLEPEDFAVYYCQQRSNWPPWTFGQGTKVEIKR', 178000);
